# ASSAY INFO: Quantitative High-Throughput drug screen in 47 multiple myeloma cell lines against the NCATS MIPE library collection: KMM1_JCRB cell viability assay (AID 1918960); note: nearly all actives have a fitted effect of over 30% in size
# SETTINGS: KMM1 myeloma viability, CellTiter-Glo ATP luminescence, 48 h; series mostly up to 45.8 µM
# Source text: PI: Beverly A. Mock Ph.D. Laboratory of Cancer Biology and Genetics, Center for Cancer Research, National Cancer Institute, National Institute of Health, Bethesda, Maryland […] 5; Detector; 425V; Luminescence; Viewlux PerkinElmer. […] 1. […] Briefly, the corresponding myeloma cell lines were screened in 1,536-well plates with 500 cells, 5-uL per well for inhibition of cell viability (assessed by measuring ATP levels with CellTiterGlo). […]
Results filed as inconclusive are left out. Activity calls are given as the source filed them. Calls come from the whole dose curve; as a rule, active = well fitted cell-killing curve with a large enough effect; inconclusive = small, poorly fitted or top-dose-only effect, or effect the other way; inactive = no such curve, though single readings can be large or run the other way.
Outcomes: 1 (yes) (active), 0 (no) (inactive)

COMPOUND | GROUP LABEL
Cc1ccc(-c2ncn(-c3ccc(Nc4nccc(-c5cccc(N6CCOCC6)c5)n4)cc3)n2)cn1 | 1 (yes)
CC(=O)SC[C@@H](C)C(=O)N1CCC[C@H]1C(=O)N[C@@H](Cc1ccccc1)C(=O)O | 0 (no)
CC[C@@]1(O)C(=O)OCc2c1cc1n(c2=O)Cc2cc3cc(O)ccc3nc2-1 | 1 (yes)
CC1(C)OC2=C(C(=O)c3ccccc3C2=O)[C@H](NCc2ccccc2)[C@H]1O | 1 (yes)
Nc1cc(C(F)(F)F)c(-c2cc(N3CCOCC3)nc(N3CCOCC3)n2)cn1 | 1 (yes)
COCCOc1ccc2c(c1)ncn2-c1ccc2cccc(N3CCC(N)CC3)c2n1 | 1 (yes)
C[C@@H]1CN(CC(=O)Nc2ccc3c(c2)Cc2cccc(-c4cc(=O)cc(N5CCOCC5)o4)c2S3)C[C@H](C)O1 | 1 (yes)
COc1cccc2c(NCc3ccccc3)nc(-n3c(N)nc4ccccc43)nc12 | 1 (yes)
COc1ccc(-n2nc(C(N)=O)c3c2C(=O)N(c2ccc(N4CCCCC4=O)cc2)CC3)cc1 | 0 (no)
CCS(=O)(=O)c1cccc(-c2cc(C(=O)NC3CCN(C)CC3)c(C)c3[nH]c4ncc(C)cc4c23)c1 | 1 (yes)
CC1(C)CC(=O)c2c(C(F)(F)F)nn(-c3ccc(C(N)=O)c(NC4CCC(OC(=O)CN)CC4)c3)c2C1 (stereo not drawn) | 1 (yes)
CC[C@@H]1C(=O)N(C)c2cnc(Nc3ccc(C(=O)NC4CCN(C)CC4)cc3OC)nc2N1C1CCCC1 | 1 (yes)
NC(=O)c1c(OCc2c(F)cc(Br)cc2F)nsc1NC(=O)NCCCCN1CCCC1 | 0 (no)
C=CC(=O)Nc1cccc(Oc2nc(Nc3ccc(N4CCN(C)CC4)cc3)ncc2Cl)c1 | 1 (yes)
COc1cc2ncn(-c3cc(OCc4ccccc4C(F)(F)F)c(C(N)=O)s3)c2cc1OC | 1 (yes)
COC(=O)C1=C(C)NC(C)=C(C(=O)OCCN2CCN(C(c3ccccc3)c3ccccc3)CC2)C1c1cccc([N+](=O)[O-])c1 (stereo not drawn) | 0 (no)
NC1(Cc2ccc(Cl)cc2)CCN(c2ncnc3[nH]ccc23)CC1 | 1 (yes)
CC(C)c1ccccc1Cc1cc(C(=O)Nc2ccc(S(=O)(=O)c3ccccc3C(C)(C)C)cc2)c(O)c(O)c1O | 0 (no)
O=C(Nc1cc(C(F)(F)F)cc(C(F)(F)F)c1)c1cc(Cl)ccc1O | 1 (yes)
O=c1[nH]c(=O)n(C2CCCO2)cc1F (stereo not drawn) | 0 (no)
Nc1nccc(Oc2ccc(NC(=O)c3c[nH]cc(-c4ccc(F)cc4)c3=O)cc2F)c1Cl | 1 (yes)
C=C1C(=CC=C2CCC[C@]3(C)[C@@H]([C@H](C)C=C[C@H](C)C(C)C)CC[C@@H]23)C[C@@H](O)C[C@@H]1O | 1 (yes)
CC=C1NC(=O)[C@H]2CSSCCC=C[C@H](CC(=O)N[C@H](C(C)C)C(=O)N2)OC(=O)[C@H](C(C)C)NC1=O | 1 (yes)
CC(NCc1ccc2c(c1)nc(NC(=O)c1ccc(-c3cn[nH]c3)s1)n2CC(C)(C)O)C(C)(C)C (stereo not drawn) | 1 (yes)
COc1cc(Nc2ncc(F)c(Nc3ccc4c(n3)N(COP(=O)(O)O)C(=O)C(C)(C)O4)n2)cc(OC)c1OC | 1 (yes)
CC(C)c1nn(-c2c(Cl)cccc2Cl)c2nc(Cc3ccc(OCCO)cc3)[nH]c(=O)c12 | 0 (no)
O=C(C=Cc1c(C(=O)O)[nH]c2cc(Cl)cc(Cl)c12)Nc1ccccc1 | 0 (no)
CN1CCN(c2ccc3nc(-c4c(N)c5c(F)cccc5[nH]c4=O)[nH]c3c2)CC1 | 1 (yes)
CN1CCN(c2cc(C(=O)Nc3ccc4c(c3)-c3c(c(C(N)=O)nn3-c3ccc(F)cc3)CC4)c(Cl)cn2)CC1 | 1 (yes)
CC[C@H]1CN2CCc3cc(OC)c(OC)cc3[C@H]2C[C@@H]1C[C@@H]1NCCc2cc(OC)c(OC)cc21 | 1 (yes)
CC(O)C1C(=O)N2C(C(=O)O)=C(SC3CNC(C(=O)N(C)C)C3)C(C)C12 (stereo not drawn) | 0 (no)
COc1ccc2c(c1)CC[C@@H](CN(C)CC(=O)O)[C@H]2c1ccccc1 | 1 (yes)
CC(C)c1cnn2c(NCc3ccccc3)cc(N[C@@H](CO)[C@H](O)CO)nc12 | 1 (yes)

---

# ASSAY INFO: qHTS of pediatric cancer cell lines to identify multiple opportunities for drug repurposing: Confirmatory screen for SK-N-SH cells (AID 1347129);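 note: cells exposed to compound for 48 h before viability read; nearly all actives have a fitted effect of over 60% in size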
# SETTINGS: SK-N-SH neuroblastoma cell viability; series mostly up to 46.1 µM
Records with an inconclusive call do not appear. Calls of active or inactive are those of the source. Calls come from the whole dose curve; as a rule, active = well fitted cell-killing curve with a large enough effect; inconclusive = small, poorly fitted or top-dose-only effect; inactive = flat fitted curve, though single readings scatter.
Outcome codes: 1.0 for active, 0.0 for inactive

SMILES RECORD | GROUP LABEL
CC=C1NC(=O)[C@H]2CSSCCC=C[C@H](CC(=O)N[C@H](C(C)C)C(=O)N2)OC(=O)[C@H](C(C)C)NC1=O | 0.0
CC(C)(C)OC(=O)Nc1ccc(-c2cc(C(=O)NCCCCCCC(=O)NO)no2)cc1 | 1.0
O=C(C=Cc1cccnc1)NCCCCC1CCN(C(=O)c2ccccc2)CC1 | 0.0

---

# ASSAY INFO: qHTS of pediatric cancer cell lines to identify multiple opportunities for drug repurposing: Primary screen for Rh41 cells (AID 1347108); note: nearly all actives have a fitted effect of over 70% in size
# SETTINGS: Rh41 rhabdomyosarcoma viability, CellTiter-Glo luminescence, 48 h; series mostly up to 46 µM
Records with an inconclusive call do not appear. The source made the active and inactive calls. Calls come from the whole dose curve; as a rule, active = well fitted cell-killing curve with a large enough effect; inconclusive = small, poorly fitted or top-dose-only effect; inactive = no such curve, though single readings can be large or run the other way.
Outcome codes: True = active, False = inactive

COMPOUND | GROUP LABEL
CN(c1ncccc1CNc1nc(Nc2ccc3c(c2)CC(=O)N3)ncc1C(F)(F)F)S(C)(=O)=O | True
O=C(Cc1ccc(-c2ccc(OCCN3CCOCC3)cc2)cn1)NCc1ccccc1 | True
COc1ccc(-c2cc3c(C)nc(N)nc3n(C3CCC(OCCO)CC3)c2=O)cn1 (stereo not drawn) | True
CNC(=O)c1c(F)cccc1Nc1nc(Nc2cc3c(cc2OC)CCN3C(=O)CN(C)C)nc2[nH]ccc12 | True
CCC[C@H](NC(=O)C(C#N)=Cc1cccc(Br)n1)c1ccccc1 | True
CNC(=O)CN1CCC(Oc2cc3c(Nc4cccc(Cl)c4F)ncnc3cc2OC)CC1 | True
CC1COC2(CCN(c3nc(=O)c4cc(C(F)(F)F)cc([N+](=O)[O-])c4s3)CC2)O1 (stereo not drawn) | False
Cc1cnc(Nc2ccc(F)cc2Cl)nc1-c1c[nH]c(C(=O)N[C@H](CO)c2cccc(Cl)c2)c1 | True
CC1(C)OC2=C(C(=O)c3ccccc3C2=O)[C@H](NCc2ccccc2)[C@H]1O | True
COc1cc2c(cc1-c1c(C)noc1C)ncc1[nH]c(=O)n([C@H](C)c3ccccn3)c12 | True
c1nc2nc(Nc3ccc(N4CCOCC4)cc3)nc(NC3CCCCC3)c2[nH]1 | True
COc1cc2c(Oc3ccc(NC(=O)C4(C(=O)Nc5ccc(F)cc5)CC4)cc3F)ccnc2cc1OCCCN1CCOCC1 | True
COc1c(N2C[C@@H]3CCCN[C@H]3C2)c(F)cc2c(=O)c(C(=O)O)cn(C3CC3)c12 | False
CC(=O)OCC(=O)[C@@]1(O)[C@H](C)C[C@H]2[C@@H]3C=C(C)C4=Cc5c(cnn5-c5ccccc5)C[C@]4(C)[C@@H]3[C@@H](O)C[C@@]21C | True
CC(C)(C)c1cc(NC(=O)Nc2ccc(-c3cn4c(n3)sc3cc(OCCN5CCOCC5)ccc34)cc2)no1 | False
Cc1nc(N)ncc1-c1nc(N2CCOCC2)c2sc(C(C)(C)O)cc2n1 | True
Cc1ccc(NC(=O)C2(c3ccc4c(c3)OC(F)(F)O4)CC2)nc1-c1cccc(C(=O)O)c1 | True
CN(C)Cc1c(C(=O)NCCOc2ccc(C(=O)NO)cc2)oc2ccccc12 | True
Cc1cn2c(-c3cn[nH]c3)cnc2c(Nc2ccc(C(=O)N3CCNCC3)cc2F)n1 | True
CC(C)CC(=O)Nc1n[nH]c2c1CN(C(=O)C1CCN(C)CC1)C2(C)C | True
Nc1nc(-c2nn(Cc3ccccc3F)c3ncccc23)nc(N)c1N1CCOCC1 | False
CC(C)(C)c1cnc(CSc2cnc(NC(=O)C3CCNCC3)s2)o1 | True
CN(C1CCc2c(c3ccccc3n2CC(=O)O)C1)S(=O)(=O)c1ccc(F)cc1 (stereo not drawn) | True
O=C(O)Cn1nnc(-c2cc(N3CCC(Oc4cc(F)ccc4Br)CC3)no2)n1 | False
CNC(=O)c1ccc(N2C(=S)N(c3cnc(C#N)c(C(F)(F)F)c3)C(=O)C23CCC3)cc1F | True
CNC(=O)c1ccc(-c2cnc3ncc(Cc4ccc5ncccc5c4)n3n2)cc1F | False
O=C(C=Cc1c(C(=O)O)[nH]c2cc(Cl)cc(Cl)c12)Nc1ccccc1 | False
Nc1cccc(-c2cc3c(Oc4cccc(O)c4)ncnc3[nH]2)c1 | True
CNC(=O)c1ccccc1Nc1nc(Nc2ccc(N3CCOCC3)cc2OC)ncc1Cl | True
Cc1cc(Nc2cc(N3CCN(C)CC3)nc(C=Cc3ccccc3)n2)n[nH]1 | True
COc1ccc(-n2nc(C(N)=O)c3c2C(=O)N(c2ccc(N4CCCCC4=O)cc2)CC3)cc1 | False
CCn1cc(-c2ccnc3[nH]c(-c4cccc(CN(C)C)c4)cc23)c(-c2ccc(NC(=O)N(C)C)cc2)n1 | True
CS(=O)(=O)c1ccc(-c2cnc(N)c(C(=O)Nc3ccccc3)n2)cc1 | False
COC(=O)Nc1ccc(-c2nc(N3CCOCC3)c3cnn(C4CCN(Cc5cccnc5)CC4)c3n2)cc1 | True
C=CCn1c(=O)c2cnc(Nc3ccc(N4CCN(C)CC4)cc3)nc2n1-c1cccc(C(C)(C)O)n1 | True
Nc1ccc(C(=O)c2cc3c(ccc4ccccc43)[nH]2)cc1 | True
O=C(NC1CCNCC1)c1[nH]ncc1NC(=O)c1c(Cl)cccc1Cl | True
Cc1coc2c1C(=O)C(=O)c1c-2ccc2c1CCCC2(C)C | False
